Every entry's value here was drawn from PubChem BioAssay AID602232.

This section presents compounds with their documented normalized ATPase activity values.
# assay.method.text: increase of myofibrillar ATP hydrolysis – biochemical, absorbance, porcine cardiac myofibrils, powder samples, mechanism study for cardiac RTF activator project (AID 602232)
# condition.notes: phosphate absorbance 660 nm, at 10 µM, stronger effect = higher value
Activity calls are given as the source filed them.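 How the source made its calls: active means normalized ATPase activity over 10% above control, with a t-test p below 0.05 against the vehicle group; inactive means the rest.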
readout.type: normalized ATPase activity

[
  {
    "compound": "CCOC(=O)c1cc2n(c1N)-c1ccccc1C2=O",
    "observed.result": "1.03 (inactive)"
  },
  {
    "compound": "CCN(CC)c1ccc(/C=C2\\SC(N)=NC2=O)cc1",
    "observed.result": "0.992 (inactive)"
  },
  {
    "compound": "COc1ccc(OC)c(/C=C2\\N=C(c3ccccc3)OC2=O)c1",
    "observed.result": "1.03 (inactive)"
  },
  {
    "compound": "CCN(CC)c1ccc(/C=c2\\sc3nc4ccccc4n3c2=O)c(O)c1",
    "observed.result": "0.988 (inactive)"
  },
  {
    "compound": "CCN1C(=O)/C(=C/C=C2/SCCN2C)SC1=S",
    "observed.result": "1.07 (inactive)"
  },
  {
    "compound": "S=C(Nc1ccc(N2CCOCC2)cc1)Nc1ccc2nc(-c3ccco3)c(-c3ccco3)nc2c1",
    "observed.result": "1.06 (inactive)"
  },
  {
    "compound": "COc1ccc(-c2nc3ccc(C4=NNC(=O)CC4C)cc3[nH]2)cc1 (centres undefined)",
    "observed.result": "1.05 (inactive)"
  },
  {
    "compound": "Cc1cccn2c(=O)c(/C=C3\\SC(=S)N(CC(C)C)C3=O)c(NCCCOC(C)C)nc12",
    "observed.result": "1.11 (active)"
  },
  {
    "compound": "CN1CCN(CCCN2c3ccccc3Sc3ccc(C(F)(F)F)cc32)CC1",
    "observed.result": "0.986 (inactive)"
  }
]
